Record form. Attribute: Kd. Fill in for each entry.
experimentNotes: Binding affinity to 5'-biotin-labeled GCTAGTC-CAGGCTTTTGCCTGGACTAGC-3' DNA (unknown origin) by surface plasmon resonance assay
A number alone suffices; assume nM.

Recorded Kd (compound CC(=O)Nc1cn(C)c(C(=O)Nc2cn(C)c(C(=O)Nc3cc(C(=O)Nc4cc(C(=O)NCC[C@@H](NC(=O)CCCc5ccc6ccc7cccc8ccc5c6c78)C(=O)Nc5cn(C)c(C(=O)Nc6cc(C(=O)Nc7cc(C(=O)Nc8cc(C(=O)NCCC(=O)NCCCN(C)C)n(C)c8)n(C)c7)n(C)c6)n5)n(C)c4)n(C)c3)n2)n1 ): 1740

// Kd value for CC(=O)Nc1cn(C)c(C(=O)Nc2cn(C)c(C(=O)Nc3cc(C(=O)Nc4cc(C(=O)NCC[C@@H](NC(=O)CCNC(=O)CCCc5ccc6ccc7cccc8ccc5c6c78)C(=O)Nc5cn(C)c(C(=O)Nc6cc(C(=O)Nc7cc(C(=O)Nc8cc(C(=O)NCCC(=O)NCCCN(C)C)n(C)c8)n(C)c7)n(C)c6)n5)n(C)c4)n(C)c3)n2)n1 : 17.3

###

experimentNotes: Binding affinity to 5'-CGTATGGACTCGG-3' DNA (unknown origin) assessed as increase in fluorescence intensity at 200 nM by florescence assay relative to control
Please go through the items and note down their fold change (FC).
The answer should be a number; do not append a unit.

The compound listed as CC(=O)Nc1cn(C)c(C(=O)Nc2cn(C)c(C(=O)Nc3cc(C(=O)Nc4cc(C(=O)NCC[C@@H](NC(=O)CCNC(=O)CCCc5ccc6ccc7cccc8ccc5c6c78)C(=O)Nc5cn(C)c(C(=O)Nc6cc(C(=O)Nc7cc(C(=O)Nc8cc(C(=O)NCCC(=O)NCCCN(C)C)n(C)c8)n(C)c7)n(C)c6)n5)n(C)c4)n(C)c3)n2)n1 has a reported fold change (FC) of 4

Data point: CC(=O)Nc1cn(C)c(C(=O)Nc2cn(C)c(C(=O)Nc3cc(C(=O)Nc4cc(C(=O)NCC[C@@H](NC(=O)CCCc5ccc6ccc7cccc8ccc5c6c78)C(=O)Nc5cn(C)c(C(=O)Nc6cc(C(=O)Nc7cc(C(=O)Nc8cc(C(=O)NCCC(=O)NCCCN(C)C)n(C)c8)n(C)c7)n(C)c6)n5)n(C)c4)n(C)c3)n2)n1 ; fold change (FC) = 7

get_value(item= CN(C)CCCNC(=O)CCNC(=O)c1cc(NC(=O)c2cc(NC(=O)c3cc(NC(=O)c4nc(NC(=O)CCCNC(=O)c5cc(NC(=O)c6cc(NC(=O)c7nc(NC(=O)c8nc(NC(=O)CCNC(=O)CCNC(=O)CCCc9ccc%10ccc%11cccc%12ccc9c%10c%11%12)cn8C)cn7C)cn6C)cn5C)cn4C)cn3C)cn2C)cn1C , readout=fold change (FC)) returns 3

Looking up CN(C)CCCNC(=O)CCNC(=O)c1cc(NC(=O)c2cc(NC(=O)c3cc(NC(=O)c4nc(NC(=O)CCCNC(=O)c5cc(NC(=O)c6cc(NC(=O)c7nc(NC(=O)c8nc(NC(=O)CCNC(=O)CCCc9ccc%10ccc%11cccc%12ccc9c%10c%11%12)cn8C)cn7C)cn6C)cn5C)cn4C)cn3C)cn2C)cn1C , I found its fold change (FC) recorded as 3

###

Assignment: determine reported fold change (FC) for the given compounds.
experimentNotes: Binding affinity to 5'-CCGAGTCCATACG-3' DNA (unknown origin) assessed as increase in fluorescence intensity at 200 nM by florescence assay relative to control
Lab note: write the figure by itself, no unit.

For reference, reported fold change (FC) for CN(C)CCCNC(=O)CCNC(=O)c1cc(NC(=O)c2cc(NC(=O)c3cc(NC(=O)c4nc(NC(=O)CCCNC(=O)c5cc(NC(=O)c6cc(NC(=O)c7nc(NC(=O)c8nc(NC(=O)CCNC(=O)CCCc9ccc%10ccc%11cccc%12ccc9c%10c%11%12)cn8C)cn7C)cn6C)cn5C)cn4C)cn3C)cn2C)cn1C stands at 3

The compound listed as CC(=O)Nc1cn(C)c(C(=O)Nc2cn(C)c(C(=O)Nc3cc(C(=O)Nc4cc(C(=O)NCC[C@@H](NC(=O)CCCc5ccc6ccc7cccc8ccc5c6c78)C(=O)Nc5cn(C)c(C(=O)Nc6cc(C(=O)Nc7cc(C(=O)Nc8cc(C(=O)NCCC(=O)NCCCN(C)C)n(C)c8)n(C)c7)n(C)c6)n5)n(C)c4)n(C)c3)n2)n1 shows fold change (FC) equal to 7

// CN(C)CCCNC(=O)CCNC(=O)c1cc(NC(=O)c2cc(NC(=O)c3cc(NC(=O)c4nc(NC(=O)CCCNC(=O)c5cc(NC(=O)c6cc(NC(=O)c7nc(NC(=O)c8nc(NC(=O)CCNC(=O)CCNC(=O)CCCc9ccc%10ccc%11cccc%12ccc9c%10c%11%12)cn8C)cn7C)cn6C)cn5C)cn4C)cn3C)cn2C)cn1C : fold change (FC) value = 3

The value of fold change (FC) measured for the compound CC(=O)Nc1cn(C)c(C(=O)Nc2cn(C)c(C(=O)Nc3cc(C(=O)Nc4cc(C(=O)NCC[C@@H](NC(=O)CCNC(=O)CCCc5ccc6ccc7cccc8ccc5c6c78)C(=O)Nc5cn(C)c(C(=O)Nc6cc(C(=O)Nc7cc(C(=O)Nc8cc(C(=O)NCCC(=O)NCCCN(C)C)n(C)c8)n(C)c7)n(C)c6)n5)n(C)c4)n(C)c3)n2)n1 turned out to be 4
